- system.under.test: human SF-1 (Homo sapiens, UniProt Q13285)
- Construct: For E. coli expression the SF-1 G219-T461 insert was cloned into a modified pET vector; made in house
- Sequence (Q13285 219-461): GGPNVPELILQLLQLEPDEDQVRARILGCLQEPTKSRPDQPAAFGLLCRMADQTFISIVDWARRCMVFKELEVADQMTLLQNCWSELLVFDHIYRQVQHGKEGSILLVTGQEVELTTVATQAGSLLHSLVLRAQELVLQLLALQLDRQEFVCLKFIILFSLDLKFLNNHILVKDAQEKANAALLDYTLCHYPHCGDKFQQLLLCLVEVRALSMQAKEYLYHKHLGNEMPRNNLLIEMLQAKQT
- Sequence (Q15788 595-780 partner limits assumed): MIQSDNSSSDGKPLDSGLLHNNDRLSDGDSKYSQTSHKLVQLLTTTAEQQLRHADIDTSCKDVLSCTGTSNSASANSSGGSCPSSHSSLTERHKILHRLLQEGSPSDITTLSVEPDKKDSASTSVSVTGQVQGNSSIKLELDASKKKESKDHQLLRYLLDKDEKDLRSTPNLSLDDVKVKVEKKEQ
- assay.procedure: AlphaScreen coactivator (SRC-1/NCoA1) recruitment to His-tagged SF-1 LBD
- Assay type: biochemical
- cond: SF-1 protein washed with phosphatidylcholine liposomes; biotinylated GST-SRC-1 fragment
property.measured: EC50 (µM)
Dear colleague, please return just the value in µM, with no unit written.

Task: Tell me the measured EC50 of "CC/C=C\C/C=C\C/C=C\CCCCCCCC(=O)OC[C@H](COP(=O)(O)OCCN)OC(=O)CCCCCCC/C=C\C/C=C\C/C=C\CC" , please.
Output: 30
